- Target Of Assay: T1, cFAP (mixture of three FAP peptides) (human)
- T1 construct: A mixture of three separate peptides coated together, not a complex; The three chains are the three components; also called directly coated FAP peptides mixture
- T1 peptide 1: HYIKDTVENAIQITS
- T1 peptide 2: GWSYGGYVSSLALAS
- T1 peptide 3: QVDFQAMWYSDQNHGL
- Procedure Text: direct ELISA: coated mixture of three FAP peptides (cFAP)

[
  {
    "Binder": "NI-206.12G4 (antibody, V domains shown, Recombinant complete human IgG1; Cy5-labelled in flow cytometry) VH: EVQLVESGGGLVKPGGSLRLSCAASGFTFSDYYMSWIRQAPGKGLEWISYISSGSSYTNYADSVKGRFTISRDNAKKSVYLEVNGLTVEDTAVYYCARVRYGDREMATIGGFDFWGQGTLVTVSS VL: SYELTQPPSVSVSPGQTARITCSGDALPKQYAYWYQQSPGQAPVLVIYKDSERPSGIPERFSGSSSGTTVTLTISGVQAEDEADYYCQSADSGGTSRIFGGGTKLTVL",
    "binding result": "no binding"
  },
  {
    "Binder": "NI-206.82C2 (antibody, V domains shown, Recombinantly expressed as complete human IgG1 with a lambda light chain; HRP-labelled in the homologue and sandwich ELISAs, Cy5-labelled in flow cytometry; also called HRP-labelled 82C2; Cy5 labelled 82C2) VH: QVQLQQSGPGLVKPSQTLSLTCAISGDSVSSNSVTWNWIRQSPSRGLEWLGRTYYRSKWYNDYAVSVKGRITINPDTSKNQFYLQLKSVTPEDAAVYYCARDSSILYGDYWGQGTLVTVSS VL: QAVLTQPSSLSASPGASASLTCTLPSGINVGTYRIFWFQQKPGSPPQYLLSYKSDSDNHQGSGVPSRFSGSKDASANAGILLISGLQSEDEADYYCMIWHSSAWVFGGGTKLTVL",
    "binding result": "no binding"
  },
  {
    "Binder": "NI-206.27E8 (antibody, V domains shown, Recombinant complete human IgG1; Cy5-labelled in flow cytometry) VH: EVQLVESGGGLVEPGGSLRLSCAASGFTFSDAWMNWVRQAPGKGLEWVGRIKTKSDGGTTDYAAPVRGRFSISRDDSKNTLFLEMNSLKTEDTAIYYCFITVIVVSSESPLDHWGQGTLVTVSS VL: SYELTQPPSVSVSPGQTARITCSGDELPKQYAYWYQQKPGQAPVLVIYKDRQRPSGIPERFSGSSSGTTVTLTISGVQAEDEADYYCQSAYSINTYVIFGGGTKLTVL",
    "binding result": "no binding"
  }
]
